# System: E. coli BL21
# measurement.description: Antibiotic gradient plate susceptibility of E. coli transformants with plasmids bearing E. coli mar genes
# Assay type: cell-based, Escherichia coli
# experimental.conditions: transformant pET13a (vector); gradient (µg/ml) CML 2.0, TET 1.0, AMP 3.0, NAL 1.0
parameter.measured: % Gowth in antibiotic gradient (%)
The figure you give is taken to be in %; do not add the unit.

Request the reported % Gowth in antibiotic gradient associated with `CC1(C)S[C@@H]2[C@H](NC(=O)[C@H](N)c3ccccc3)C(=O)N2[C@H]1C(=O)O`
2

Request the reported % Gowth in antibiotic gradient associated with `CN(C)[C@@H]1C(O)=C(C(N)=O)C(=O)[C@@]2(O)C(O)=C3C(=O)c4c(O)cccc4[C@@](C)(O)[C@H]3C[C@@H]12`
33

Request the reported % Gowth in antibiotic gradient associated with `CCn1cc(C(=O)O)c(=O)c2ccc(C)nc21`
17

Request the reported % Gowth in antibiotic gradient associated with `O=C(N[C@H](CO)[C@H](O)c1ccc([N+](=O)[O-])cc1)C(Cl)Cl`
20

###

# Tested on: M. smegmatis mc^2155
# Type: cell-based, Mycobacterium smegmatis
parameter.measured: resistance compared to the microbe with vector alone

O=C(N[C@H](CO)[C@H](O)c1ccc([N+](=O)[O-])cc1)C(Cl)Cl = increased resistance
NNC(=O)c1ccncc1 = increased resistance
CC[C@@H](CO)NCCN[C@@H](CC)CO = increased resistance
